Recorded PBM binding z-score for the following sequences
System: RARg:RXRa (NR concentration 270 nM, RXRa partner concentration 90 nM)
Experiment Description: PBM binding z-score (relative to random genomic background probes); higher = stronger binding; sequences stand for … in GC…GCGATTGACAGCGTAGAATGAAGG
Quantity Name: PBM binding z-score

In [3]: df
Out[3]:
                macromolecule_sequence                            assayed_system  readout_value
 0  TCATATAGGTAAACAGGAGAAAGTCCGTAAGTTA  RARg:RXRa (NR concentration 270 nM, RXRa partner concentration 90 nM)         0.0941
 1  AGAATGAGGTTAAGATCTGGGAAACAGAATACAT  RARg:RXRa (NR concentration 270 nM, RXRa partner concentration 90 nM)           2.11
 2  CGTCCAAGTTCAAAGGTCAGTGAAGAGATGACGG  RARg:RXRa (NR concentration 270 nM, RXRa partner concentration 90 nM)           7.24
 3  CAAACTAGGTCTCCGGAAGGTCAAAGTCCGCATG  RARg:RXRa (NR concentration 270 nM, RXRa partner concentration 90 nM)           4.36
 4  ACTATTAGTTGATTTAGGGCAACCGATACGACGC  RARg:RXRa (NR concentration 270 nM, RXRa partner concentration 90 nM)          0.306
 5  TATACAGGGTCAAATGCCAGAGTACGAATGTCGA  RARg:RXRa (NR concentration 270 nM, RXRa partner concentration 90 nM)           5.88
 6  CGTCCAAAGTCATAGGAGGTCAGTGAAGACAGAT  RARg:RXRa (NR concentration 270 nM, RXRa partner concentration 90 nM)           2.71
 7  ATCTCTAGGTAAAGTTCAGTGGAAGATCGATAGA  RARg:RXRa (NR concentration 270 nM, RXRa partner concentration 90 nM)           2.03
 8  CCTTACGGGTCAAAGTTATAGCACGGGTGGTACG  RARg:RXRa (NR concentration 270 nM, RXRa partner concentration 90 nM)           4.74
 9  TCTAGATGGTCAAAGGTCACACACTCGAAATGCG  RARg:RXRa (NR concentration 270 nM, RXRa partner concentration 90 nM)           7.31
10  ATGTCTAGGTAACCAAGTTCAGTGAATGCCGAAC  RARg:RXRa (NR concentration 270 nM, RXRa partner concentration 90 nM)          0.808
11  ATCTCTAGGGAACAAGTTCAGTGAAAGAGAGGAC  RARg:RXRa (NR concentration 270 nM, RXRa partner concentration 90 nM)          0.977
12  TATACAGGGTGAAAGGCCAGAGTACGAATGTCGA  RARg:RXRa (NR concentration 270 nM, RXRa partner concentration 90 nM)           1.67
13  TGAATGAGGCTAAAGATCAGGGAACGTGGCGTCG  RARg:RXRa (NR concentration 270 nM, RXRa partner concentration 90 nM)        -0.0145
14  ATAGACAGGTGATGAAGGTAACTCAGGCTATCAT  RARg:RXRa (NR concentration 270 nM, RXRa partner concentration 90 nM)         0.0804
15  TCTATTAGTTGATTAGGGCTACCGAAACAGCGGA  RARg:RXRa (NR concentration 270 nM, RXRa partner concentration 90 nM)          0.318
16  ACTAGCAGGCCACGTTTGGGTCACTCAAACAAAG  RARg:RXRa (NR concentration 270 nM, RXRa partner concentration 90 nM)           2.05
17  ATACCAAGGTGATCGTGAGGTAGTTGATACTAAC  RARg:RXRa (NR concentration 270 nM, RXRa partner concentration 90 nM)          0.422
18  GCTTGTAGATCACGGTTAAGAAAGACTAAGCTAA  RARg:RXRa (NR concentration 270 nM, RXRa partner concentration 90 nM)         -0.304
19  TCATATAGGTAATACAGGTGAAAGTCGGCATCTA  RARg:RXRa (NR concentration 270 nM, RXRa partner concentration 90 nM)          0.799
20  CCTTACGGGTCACTGCAGGTTATAGCATCGGAGT  RARg:RXRa (NR concentration 270 nM, RXRa partner concentration 90 nM)           4.87
21  CCTACTGGGCCATGAGGTCATTGATATCAACGTT  RARg:RXRa (NR concentration 270 nM, RXRa partner concentration 90 nM)           3.54
22  CGTCCAAGGTCAGCAGTTCAGTGAAAGCGACGTG  RARg:RXRa (NR concentration 270 nM, RXRa partner concentration 90 nM)           5.66
23  GCAGACAGGTGAAACGCAGGTAACTCTGGGTGGC  RARg:RXRa (NR concentration 270 nM, RXRa partner concentration 90 nM)          0.724
24  GCTAGTTGGTCAGTAGAAGGTCACACACCGGTCG  RARg:RXRa (NR concentration 270 nM, RXRa partner concentration 90 nM)           4.23
25  TGTCAAAGTTCAAAGGTAATGTAAGTATCCACAC  RARg:RXRa (NR concentration 270 nM, RXRa partner concentration 90 nM)           5.97
26  CGTCAAAGTTCAAGGGAACGTAACAGAAAGCAGC  RARg:RXRa (NR concentration 270 nM, RXRa partner concentration 90 nM)           4.97
27  CCTACTGGGCCAAAAAGGTCAGTGATGCCGATAA  RARg:RXRa (NR concentration 270 nM, RXRa partner concentration 90 nM)            3.5
28  TCTCGGAGGACACGATAGGTCAGAGCTCGACATC  RARg:RXRa (NR concentration 270 nM, RXRa partner concentration 90 nM)           2.49
29  CCGACTGGGGCACGGTTACCATAACGCACAGCCA  RARg:RXRa (NR concentration 270 nM, RXRa partner concentration 90 nM)          0.548
30  ATCGAAAGGTCGTGCGGTGAGTATACAGAAAGGC  RARg:RXRa (NR concentration 270 nM, RXRa partner concentration 90 nM)           4.48
31  ATCTCCAGGTAACAAGTTCAGTGAAAGAGAGGAC  RARg:RXRa (NR concentration 270 nM, RXRa partner concentration 90 nM)           1.92
32  CCGACTGGGTCAAGGTTACCATAACGCACAGCCA  RARg:RXRa (NR concentration 270 nM, RXRa partner concentration 90 nM)           3.98
33  ACTAGCAGGCCAAGTTTGGGTCTCTCAAACAAAG  RARg:RXRa (NR concentration 270 nM, RXRa partner concentration 90 nM)         -0.231

Ref: the supplement of paper PMC6555819
